Assayed Target: T1, recombinant human TIGIT (Sino Biological) (human, UniProt Q495A1 22-138)
T1 construct: Bought protein; NP_776160.2; also called human TIGIT antigen; hTIGIT
T1 sequence: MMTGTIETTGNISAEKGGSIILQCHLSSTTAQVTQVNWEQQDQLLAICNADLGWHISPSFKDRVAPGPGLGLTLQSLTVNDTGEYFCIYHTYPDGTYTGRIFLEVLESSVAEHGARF
Test Summary: SPR (Biacore T200), single cycle kinetics, IgG from supernatant captured on anti-human chip, TIGIT as analyte, 1:1 fit;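 also: measured at 25 °C in HBS-P+ with 1% BSA, four ascending TIGIT concentrations, 210 s association per step, one final 900 s dissociation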
List of koff values.
Kindly answer with a numeric value in s⁻¹, unit omitted.

These solved cases illustrate the format of a correct answer.
binder="7A6 VH5/Vκ5 humanized antibody (human IgG1, kappa) (antibody, V domains shown, Tested as IgG in supernatant of transiently transfected HEK293 EBNA cells) VH: QVQLQESGPGLVKPSQTLSLTCTVTGYSITSDYAWNWIRQPPGKGLEWMGYISYSGSARYNPSLKSRVTISVDTSKNQFSLKLSSVTAADTAVYYCARKGYPAYFAYWGQGTLVTVSS VL: DIQMTQSPSSLSASVGDRVSITCKASQDVSTAVAWYQQKPGQAPRLLIYSASYRYTGVPDRFSGSGSGTDFTLTISSLQPEDFATYYCQHHYSTPYTFGQGTKLEIKR" value_observed=0.0017
binder="7A6 VH5/Vκ3 humanized antibody (human IgG1, kappa) (antibody, V domains shown, Tested as IgG in supernatant of transiently transfected HEK293 EBNA cells) VH: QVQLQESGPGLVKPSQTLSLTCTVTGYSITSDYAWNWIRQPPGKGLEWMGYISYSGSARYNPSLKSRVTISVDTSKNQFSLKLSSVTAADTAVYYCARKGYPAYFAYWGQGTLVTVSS VL: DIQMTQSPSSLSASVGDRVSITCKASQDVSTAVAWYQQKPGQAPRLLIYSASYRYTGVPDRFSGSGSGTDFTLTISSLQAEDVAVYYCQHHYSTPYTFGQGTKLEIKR" value_observed=0.00189

Pending binder:
IN: Param item = 7A6 VH5/Vκ4 humanized antibody (human IgG1, kappa) (antibody, V domains shown, Tested as IgG in supernatant of transiently transfected HEK293 EBNA cells) VH: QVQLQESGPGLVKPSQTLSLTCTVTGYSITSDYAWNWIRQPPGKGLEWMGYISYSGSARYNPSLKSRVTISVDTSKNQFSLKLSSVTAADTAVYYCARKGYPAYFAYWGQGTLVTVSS VL: DIQMTQSPSSLSASVGDRVTITCRASQDVSTAVAWYQQKPGQAPRLLIYSASYRYTGVPDRFSGSGSGTDFTLTISSLQAEDVAVYYCQHHYSTPYTFGQGTKLEIKR ; retrieve measured koff.
OUT: 0.00181
